System: PSMA-expressing LNCAP cancer xenografts
experiment: Biodistribution of ^68Ga-labeled PSMA-targeting tracers
Format: in vivo, mice
conditionDetails: 1 h post-injection
valueKind: Tissue (% ID/g): Salivary
Report as a plain number; the unit % ID/g is understood.

Task: Name the recorded Tissue (% ID/g): Salivary of the compound listed here: O=C([O-])CN1CCN(CC(=O)[O-])CCN(CC(=O)NC[C@H]2CC[C@H](C(=O)N[C@@H](Cc3ccc4cc5ccccc5cc4c3)C(=O)NCCCC[C@H](NC(=O)N[C@@H](CCC(=O)O)C(=O)O)C(=O)O)CC2)CCN(CC(=O)[O-])CC1.[68Ga+3] [^68Ga-HTK03027]
Output: 1.86

Task: Name the recorded Tissue (% ID/g): Salivary of the compound listed here: CCCCCC[C@H](NC(=O)[C@H]1CC[C@H](CNC(=O)CN2CCN(CC(=O)[O-])CCN(CC(=O)[O-])CCN(CC(=O)[O-])CC2)CC1)C(=O)NCCCC[C@H](NC(=O)N[C@@H](CCC(=O)O)C(=O)O)C(=O)O.[68Ga+3] [^68Ga-HTK03026]
Output: 0.83

Task: Name the recorded Tissue (% ID/g): Salivary of the compound listed here: O=C([O-])CN1CCN(CC(=O)[O-])CCN(CC(=O)NC[C@H]2CC[C@H](C(=O)N[C@@H](Cc3c4ccccc4cc4ccccc34)C(=O)NCCCC[C@H](NC(=O)N[C@@H](CCC(=O)O)C(=O)O)C(=O)O)CC2)CCN(CC(=O)[O-])CC1.[68Ga+3] [^68Ga-HTK03041]
Output: 4.99

Task: Name the recorded Tissue (% ID/g): Salivary of the compound listed here: O=C([O-])CN1CCN(CC(=O)[O-])CCN(CC(=O)NC[C@H]2CC[C@H](C(=O)N[C@@H](Cc3ccc4ccc5cccc6ccc3c4c56)C(=O)NCCCC[C@H](NC(=O)N[C@@H](CCC(=O)O)C(=O)O)C(=O)O)CC2)CCN(CC(=O)[O-])CC1.[68Ga+3] [^68Ga-HTK03029]
Output: 3.27

====

Tested on: PSMA-expressing LNCAP cancer xenografts
experiment: Biodistribution of ^68Ga-labeled PSMA-targeting tracers
Type: in vivo, mice
conditionDetails: 1 h post-injection
valueKind: Tissue (% ID/g): Spleen
Number first, unit second: that is the form wanted.

Task: Name the recorded Tissue (% ID/g): Spleen of the compound listed here: O=C([O-])CN1CCN(CC(=O)[O-])CCN(CC(=O)NC[C@H]2CC[C@H](C(=O)N[C@@H](Cc3ccc4cc5ccccc5cc4c3)C(=O)NCCCC[C@H](NC(=O)N[C@@H](CCC(=O)O)C(=O)O)C(=O)O)CC2)CCN(CC(=O)[O-])CC1.[68Ga+3] [^68Ga-HTK03027]
Output: 3.36 ± 2.54 % ID/g

Task: Name the recorded Tissue (% ID/g): Spleen of the compound listed here: O=C([O-])CN1CCN(CC(=O)[O-])CCN(CC(=O)NC[C@H]2CC[C@H](C(=O)N[C@@H](Cc3ccc4ccc5cccc6ccc3c4c56)C(=O)NCCCC[C@H](NC(=O)N[C@@H](CCC(=O)O)C(=O)O)C(=O)O)CC2)CCN(CC(=O)[O-])CC1.[68Ga+3] [^68Ga-HTK03029]
Output: 7.08 ± 5.08 % ID/g

Task: Name the recorded Tissue (% ID/g): Spleen of the compound listed here: O=C([O-])CN1CCN(CC(=O)[O-])CCN(CC(=O)NC[C@H]2CC[C@H](C(=O)N[C@@H](Cc3c4ccccc4cc4ccccc34)C(=O)NCCCC[C@H](NC(=O)N[C@@H](CCC(=O)O)C(=O)O)C(=O)O)CC2)CCN(CC(=O)[O-])CC1.[68Ga+3] [^68Ga-HTK03041]
Output: 8.95 ± 3.22 % ID/g

Task: Name the recorded Tissue (% ID/g): Spleen of the compound listed here: CCCCCC[C@H](NC(=O)[C@H]1CC[C@H](CNC(=O)CN2CCN(CC(=O)[O-])CCN(CC(=O)[O-])CCN(CC(=O)[O-])CC2)CC1)C(=O)NCCCC[C@H](NC(=O)N[C@@H](CCC(=O)O)C(=O)O)C(=O)O.[68Ga+3] [^68Ga-HTK03026]
Output: 1.34 ± 0.54 % ID/g

====

Test system: PSMA-expressing LNCAP cancer xenografts
experiment: Biodistribution of ^68Ga-labeled PSMA-targeting tracers
Format: in vivo, mice
conditionDetails: 1 h post-injection
valueKind: Tissue (% ID/g): Lacrimal
Report as a plain number; the unit % ID/g is understood.

Task: Name the recorded Tissue (% ID/g): Lacrimal of the compound listed here: O=C([O-])CN1CCN(CC(=O)[O-])CCN(CC(=O)NC[C@H]2CC[C@H](C(=O)N[C@@H](Cc3c4ccccc4cc4ccccc34)C(=O)NCCCC[C@H](NC(=O)N[C@@H](CCC(=O)O)C(=O)O)C(=O)O)CC2)CCN(CC(=O)[O-])CC1.[68Ga+3] [^68Ga-HTK03041]
Output: 2.44

Task: Name the recorded Tissue (% ID/g): Lacrimal of the compound listed here: O=C([O-])CN1CCN(CC(=O)[O-])CCN(CC(=O)NC[C@H]2CC[C@H](C(=O)N[C@@H](Cc3ccc4ccc5cccc6ccc3c4c56)C(=O)NCCCC[C@H](NC(=O)N[C@@H](CCC(=O)O)C(=O)O)C(=O)O)CC2)CCN(CC(=O)[O-])CC1.[68Ga+3] [^68Ga-HTK03029]
Output: 1.06

Task: Name the recorded Tissue (% ID/g): Lacrimal of the compound listed here: CCCCCC[C@H](NC(=O)[C@H]1CC[C@H](CNC(=O)CN2CCN(CC(=O)[O-])CCN(CC(=O)[O-])CCN(CC(=O)[O-])CC2)CC1)C(=O)NCCCC[C@H](NC(=O)N[C@@H](CCC(=O)O)C(=O)O)C(=O)O.[68Ga+3] [^68Ga-HTK03026]
Output: 1.33

Task: Name the recorded Tissue (% ID/g): Lacrimal of the compound listed here: O=C([O-])CN1CCN(CC(=O)[O-])CCN(CC(=O)NC[C@H]2CC[C@H](C(=O)N[C@@H](Cc3ccc4cc5ccccc5cc4c3)C(=O)NCCCC[C@H](NC(=O)N[C@@H](CCC(=O)O)C(=O)O)C(=O)O)CC2)CCN(CC(=O)[O-])CC1.[68Ga+3] [^68Ga-HTK03027]
Output: 1.00

====

Test system: PSMA-expressing LNCAP cancer xenografts
experiment: Biodistribution of ^68Ga-labeled PSMA-targeting tracers
Type: in vivo, mice
conditionDetails: 1 h post-injection
valueKind: Tissue (% ID/g): Lungs

Task: Name the recorded Tissue (% ID/g): Lungs of the molecule listed here: O=C([O-])CN1CCN(CC(=O)[O-])CCN(CC(=O)NC[C@H]2CC[C@H](C(=O)N[C@@H](Cc3ccc4cc5ccccc5cc4c3)C(=O)NCCCC[C@H](NC(=O)N[C@@H](CCC(=O)O)C(=O)O)C(=O)O)CC2)CCN(CC(=O)[O-])CC1.[68Ga+3] [^68Ga-HTK03027]
Output: 1.66 ± 0.67 % ID/g

Task: Name the recorded Tissue (% ID/g): Lungs of the molecule listed here: O=C([O-])CN1CCN(CC(=O)[O-])CCN(CC(=O)NC[C@H]2CC[C@H](C(=O)N[C@@H](Cc3ccc4ccc5cccc6ccc3c4c56)C(=O)NCCCC[C@H](NC(=O)N[C@@H](CCC(=O)O)C(=O)O)C(=O)O)CC2)CCN(CC(=O)[O-])CC1.[68Ga+3] [^68Ga-HTK03029]
Output: 3.59 ± 0.69 % ID/g

Task: Name the recorded Tissue (% ID/g): Lungs of the molecule listed here: CCCCCC[C@H](NC(=O)[C@H]1CC[C@H](CNC(=O)CN2CCN(CC(=O)[O-])CCN(CC(=O)[O-])CCN(CC(=O)[O-])CC2)CC1)C(=O)NCCCC[C@H](NC(=O)N[C@@H](CCC(=O)O)C(=O)O)C(=O)O.[68Ga+3] [^68Ga-HTK03026]
Output: 0.82 ± 0.26 % ID/g

Task: Name the recorded Tissue (% ID/g): Lungs of the molecule listed here: O=C([O-])CN1CCN(CC(=O)[O-])CCN(CC(=O)NC[C@H]2CC[C@H](C(=O)N[C@@H](Cc3c4ccccc4cc4ccccc34)C(=O)NCCCC[C@H](NC(=O)N[C@@H](CCC(=O)O)C(=O)O)C(=O)O)CC2)CCN(CC(=O)[O-])CC1.[68Ga+3] [^68Ga-HTK03041]
Output: 4.32 ± 0.62 % ID/g

====

Task for the reader: assign each of the following compounds its reported Tissue (% ID/g): Urine.
Tested on: PSMA-expressing LNCAP cancer xenografts
experiment: Biodistribution of ^68Ga-labeled PSMA-targeting tracers
Type: in vivo, mice
conditionDetails: 1 h post-injection
Protocol: Imaging and biodistribution experiments were performed using NODSCID 1L2RγKO male mice. Mice were anesthetized by inhalation with 2% isoflurane in oxygen, and implanted subcutaneously with 1×10^7 LNCaP cells behind left shoulder. […] PET imaging experiments were conducted using Siemens Inveon micro PET/CT scanner. […] Then, a 10-min static PET imaging was performed to determined uptake in tumor and other organs. […]
Report as a plain number; the unit % ID/g is understood.

Task: Name the recorded Tissue (% ID/g): Urine of the compound listed here: O=C([O-])CN1CCN(CC(=O)[O-])CCN(CC(=O)NC[C@H]2CC[C@H](C(=O)N[C@@H](Cc3ccc4cc5ccccc5cc4c3)C(=O)NCCCC[C@H](NC(=O)N[C@@H](CCC(=O)O)C(=O)O)C(=O)O)CC2)CCN(CC(=O)[O-])CC1.[68Ga+3] [^68Ga-HTK03027]
Output: 844

Task: Name the recorded Tissue (% ID/g): Urine of the compound listed here: CCCCCC[C@H](NC(=O)[C@H]1CC[C@H](CNC(=O)CN2CCN(CC(=O)[O-])CCN(CC(=O)[O-])CCN(CC(=O)[O-])CC2)CC1)C(=O)NCCCC[C@H](NC(=O)N[C@@H](CCC(=O)O)C(=O)O)C(=O)O.[68Ga+3] [^68Ga-HTK03026]
Output: 575

Task: Name the recorded Tissue (% ID/g): Urine of the compound listed here: O=C([O-])CN1CCN(CC(=O)[O-])CCN(CC(=O)NC[C@H]2CC[C@H](C(=O)N[C@@H](Cc3ccc4ccc5cccc6ccc3c4c56)C(=O)NCCCC[C@H](NC(=O)N[C@@H](CCC(=O)O)C(=O)O)C(=O)O)CC2)CCN(CC(=O)[O-])CC1.[68Ga+3] [^68Ga-HTK03029]
Output: 175

Task: Name the recorded Tissue (% ID/g): Urine of the compound listed here: O=C([O-])CN1CCN(CC(=O)[O-])CCN(CC(=O)NC[C@H]2CC[C@H](C(=O)N[C@@H](Cc3c4ccccc4cc4ccccc34)C(=O)NCCCC[C@H](NC(=O)N[C@@H](CCC(=O)O)C(=O)O)C(=O)O)CC2)CCN(CC(=O)[O-])CC1.[68Ga+3] [^68Ga-HTK03041]
Output: 173
